Tested on: RXF 393 renal
ASSAY PROTOCOL: NCI tumour cell line growth inhibition, 48 h; in the data active means GI50 below about 0.43 µM; inactive means the rest
Respond with a class label; see YES = active, NO = inactive

Please review the following examples before continuing.
Cn1cnc([N+](=O)[O-])c1S(=O)(=O)Oc1cccc2ccccc12 | NO
Cc1cc(-c2ccc3nc(C4CCOCC4)n(CCOC(F)(F)F)c3c2)cn(C)c1=O | NO
C=C1NC(=O)C(C(C)CC)NC(=O)C2CSCC(NC(=O)CCC(=O)O)C(=O)NC(Cc3ccccc3)C(=O)NC(C)C(=O)NC(CC(C)CC)C(=O)NC(C(=O)NC(Cc3ccccc3)C(=O)N3CCCC3C(=O)N2)C(C)OC(=O)C(CO)NC(=O)C(C(O)COC)N(C)C(=O)C(C(C)C)NC(=O)C(CC(C)CC)NC1=O (configuration not stated) | YES

Q: Just curious, what result did `COc1ccc(/C=C(/C#N)n2nnc3cccc(F)c32)cc1` get here?
Ans: NO

Q: Just curious, what result did `COc1cc2c3c(n(C)c(=O)c2cc1OC)-c1cc2c(cc1/C3=C\CCN)OCO2` get here?
Ans: NO

Q: Just curious, what result did `CCCCCCCC(=O)SCC/C=C/[C@@H]1CC(=O)NCc2cc(ccn2)C2=N[C@@](C)(CS2)C(=O)N[C@@H](C(C)C)C(=O)O1` get here?
Ans: YES

Q: Just curious, what result did `COc1cc(/C=C/c2cc(O)c(C(C)=O)c(O)c2)cc2c1O[C@]1(C)CC[C@@H](O)C(C)(C)[C@H]1C2` get here?
Ans: NO

Q: Just curious, what result did O=c1c2sccc2n(CC2COc3ccccc3O2)c(=O)n1O (configuration not stated) get here?
Ans: NO

Q: Just curious, what result did `O=C(/C=C/c1ccncc1)c1cc(Cl)ccc1O` get here?
Ans: NO

Q: Just curious, what result did `O=C(CSc1ccc(Cl)cc1)Nc1ccc(-c2nc3ccccc3s2)c(Cl)c1` get here?
Ans: NO

Q: Just curious, what result did `CC[C@H](Nc1ncnc2nc[nH]c12)c1oc2ccccc2c(=O)c1-c1cccc(F)c1` get here?
Ans: NO

Q: Just curious, what result did `O=C(/C=C/c1ccc(Cl)cc1)c1ccc(Nc2ccnc3cc(Cl)ccc23)cc1` get here?
Ans: NO
